Tested on: HOP-62 complex spheroids with HUVEC/MSC, viability
Test: Anticancer human tumor HOP-62 cell line growth inhibition [RAS]; active = viability on the fitted dose curve at most 10% of control; inactive = the rest;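 note: spheroids exposed to agents for seven days before readout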
Conditions: second compound 3.16 µM; first compound 10 µM
I would appreciate it if you answered using one of these outcomes: active, inactive

The examples below pair each entry with its known result.
- Compound: "NC1c2ccccc2OC12CCN(c1cnc3c(N4CCCc5ncccc54)n[nH]c3n1)CC2 (stereo not drawn) + C#Cc1c(F)ccc2cc(O)cc(-c3ncc4c(N5CC6CCC(C5)N6)nc(OCC56CCCN5CC(F)C6)nc4c3F)c12"
  Cat: "inactive"
- Compound: "CC(C)NCC(C(=O)N1CCN(c2ncnc3c2C(C)CC3O)CC1)c1ccc(Cl)cc1 (stereo not drawn) + C#Cc1c(F)ccc2cc(O)cc(-c3ncc4c(N5CC6CCC(C5)N6)nc(OCC56CCCN5CC(F)C6)nc4c3F)c12"
  Cat: "inactive"
- Compound: "Cc1nc(N2CCC3(CC2)COC(C)C3N)c(CO)nc1Sc1ccnc(N)c1Cl (stereo not drawn) + C#Cc1c(F)ccc2cc(O)cc(-c3ncc4c(N5CC6CCC(C5)N6)nc(OCC56CCCN5CC(F)C6)nc4c3F)c12"
  Cat: "inactive"

Ask: What did this assay record as the result for CC(=O)OC12COC1CC(O)C1(C)C(=O)C(O)C3=C(C)C(OC(=O)C(O)C(NC(=O)OC(C)(C)C)c4ccccc4)CC(O)(C(OC(=O)c4ccccc4)C21)C3(C)C (stereo not drawn) + C#Cc1c(F)ccc2cc(O)cc(-c3ncc4c(N5CC6CCC(C5)N6)nc(OCC56CCCN5CC(F)C6)nc4c3F)c12 ?
Reply: inactive

Ask: Then what about the compound CC(Nc1ccc2c(c1)OCCn1cc(N3C(=O)OCC3C(F)F)nc1-2)C(N)=O (stereo not drawn) + C#Cc1c(F)ccc2cc(O)cc(-c3ncc4c(N5CC6CCC(C5)N6)nc(OCC56CCCN5CC(F)C6)nc4c3F)c12 ?
Reply: inactive

Ask: Then what about the compound CC1(O)CCCC1n1c(=O)c(C(F)F)cc2cnc(NC3CCN(S(C)(=O)=O)CC3)nc21 (stereo not drawn) + C#Cc1c(F)ccc2cc(O)cc(-c3ncc4c(N5CC6CCC(C5)N6)nc(OCC56CCCN5CC(F)C6)nc4c3F)c12 ?
Reply: active

Ask: Then what about the compound CCC(CC)c1cc(NC2CCC(N)C2)n2nccc2n1 (stereo not drawn) + C#Cc1c(F)ccc2cc(O)cc(-c3ncc4c(N5CC6CCC(C5)N6)nc(OCC56CCCN5CC(F)C6)nc4c3F)c12 ?
Reply: active

Ask: Then what about the compound C[C@@H](NC(=O)c1ncnc(N)c1Cl)c1ncc(C(=O)Nc2cc(C(F)(F)F)c(Cl)cn2)s1 + C#Cc1c(F)ccc2cc(O)cc(-c3ncc4c(N5CC6CCC(C5)N6)nc(OCC56CCCN5CC(F)C6)nc4c3F)c12 ?
Reply: inactive
